- assay_details: Antineuroinflammatory activity in rat brain neonatal microglia
- Assay type: functional, tissue-based
- settings: read-out: IC50
quantity: IC50 (nM)
Kindly provide the numeric value in nM only, without the unit symbol.

# lookup: IC50 of CC(=O)Oc1ccccc1C(=O)O 3.2

Data provenance: ChEMBL document CHEMBL3098121
